Biological target: T1, Human soluble IL-6R (human, UniProt P08887 20-358)
T1 construct: Soluble recombinant form; biotinylated in some assays; also called hIL-6R; human IL-6R
T1 sequence (looked up): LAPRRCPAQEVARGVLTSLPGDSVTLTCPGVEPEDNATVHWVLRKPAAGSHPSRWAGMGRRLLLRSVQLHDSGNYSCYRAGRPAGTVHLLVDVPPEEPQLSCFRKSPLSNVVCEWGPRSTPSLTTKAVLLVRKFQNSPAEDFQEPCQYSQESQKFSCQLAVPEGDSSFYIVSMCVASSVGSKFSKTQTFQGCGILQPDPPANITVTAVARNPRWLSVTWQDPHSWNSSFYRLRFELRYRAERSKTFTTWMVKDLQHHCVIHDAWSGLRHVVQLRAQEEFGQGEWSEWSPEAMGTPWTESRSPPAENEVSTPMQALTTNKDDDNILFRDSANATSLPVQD
Assay: Biacore, binding to IL-6R
koff reference
Quick note: give the figure in s⁻¹, leave out the unit.

These recorded examples may help you get a feel for the data.
IL6R64 (VHH) VHH: EVQLVESGGGLVQPGGSLRLSCAASGSIFKVNAMGWYRQAPGKGRELVAGIISGGSTNYADSVKGRLTISRDNAKNTVYLQMNSLRPEDTAVYYCAFVTTNSDYDLGRDYWGQGTLVTVSS | 0.001
IL6R74 (VHH) VHH: EVQLVESGGGLVQPGGSLRLSCAASGFTFDDYDIGWFRQAPGKGREGVSGISSSDGNTYYADSVKGRFTISSDNAKNTLYLQMNSLRPEDTAVYYCAAEPPDSSWYLDGSPEFFKYWGQGTLVTVSS | 0.000122
IL6R62 (VHH) VHH: EVQLVESGGGLVQPGGSLRLSCAASGSIFKVNAMGWYRQAPGKGRELVAGIISGGSTNYADSVKGRFTISRDNAKNTVYLQMNSLRPEDTAVYYCSFVTTNSDYDLGRDYWGQGTLVTVSS | 0.00207
IL6R71 (VHH) VHH: EVQLVESGGGLVQPGGSLRLSCAASGFTFDDYDIGWFRQAPGKGREGVSGISSSDGNTYYADSVKGRFTISSDNAKNTVYLQMNSLRPEDTAVYYCAAEPPDSSWYLDGSPEFFKYWGQGTLVTVSS | 0.000153
IL6R72 (VHH) VHH: EVQLVESGGGLVQPGGSLRLSCAASGFTFSDYDIGWFRQAPGKGREGVSGISSSDGNTYYADSVKGRFTISSDNAKNTVYLQMNSLRPEDTAVYYCAAEPPDSSWYLDGSPEFFKYWGQGTLVTVSS | 0.00018

Task: Consider the binder shown here: IL6R61 (VHH) VHH: EVQLVESGGGLVQPGGSLRLSCAASGSIFKVNAMGWYRQAPGKGRELVAGIISGGSTNYADSVKGRLTISRDNAKNTVYLQMNSLRPEDTAVYYCSFVTTNSDYDLGRDYWGQGTLVTVSS What is its recorded koff?
Result: 0.0017

Task: Consider the binder shown here: IL6R84 (VHH) VHH: EVQLVESGGGLVQPGGSLRLSCAASGFTFDDYGMSWVRQAPGKGLEWVSAISWNGNNTYYTESMKGRFTISRDNAKNTLYLQMNSLRPEDTAVYYCVKGSTAIVGVPPTYPDEYDYWGQGTLVTVSS What is its recorded koff?
Result: 0.00409

Task: Consider the binder shown here: IL6R63 (VHH) VHH: EVQLVESGGGLVQPGGSLRLSCAASGSIFKVNAMGWYRQAPGKGRELVAGIISGGSTNYADSVKGRLTISRDNAKNTLYLQMNSLRPEDTAVYYCSFVTTNSDYDLGRDYWGQGTLVTVSS What is its recorded koff?
Result: 0.00365
